biological target: T1, HLA-DR3 molecule (DRB1*0301) (human); test: competitive ELISA, tracer MT 2-16
T1 construct: HLA class II heterodimer
assay_readout: pIC50
Would you please state pIC50, meaning minus log10 of the concentration in mol/L, as a bare number?

Some binders with recorded pIC50:
binder: GEFLKLDRERAKNKI (synthetic 15-mer) [survivin peptide 99-113]
observed_value: 5.33
//
binder: LTLGEFLKLDRERAK (synthetic 15-mer) [survivin peptide 96-110]
observed_value: 5.26
//
binder: KEFEETAKKVRRAIE (synthetic 15-mer) [survivin peptide 122-136]
observed_value: 5.24

Query: Requested read-out: pIC50. Entry: QPFLKDHRISTFKNW (synthetic 15-mer) [survivin peptide 11-25]
Reply: 4.19

Query: Requested read-out: pIC50. Entry: AKKVRRAIEQLAAMD (synthetic 15-mer) [survivin peptide 128-142]
Reply: 4.92

Query: Requested read-out: pIC50. Entry: CAFLSVKKQFEELTL (synthetic 15-mer) [survivin peptide 84-98]
Reply: 5.59

Query: Requested read-out: pIC50. Entry: PAWQPFLKDHRISTF (synthetic 15-mer) [survivin peptide 8-22]
Reply: 4.80

Query: Requested read-out: pIC50. Entry: PDLAQCFFCFKELEG (synthetic 15-mer) [survivin peptide 52-66]
Reply: 4.93

The reported measurements were obtained from patent US20090004214A1.
